Ref: patent US20220380446A1

target: human α-synuclein pre-formed fibrils (Human Alpha Synuclein Pre-formed Fibrils Type II, StressMarq SPR-317) (human, UniProt P37840 1-140); test: SPR Biacore T200, antibody captured on Protein A chip, α-syn PFF analyte, 1:1 model
assay-metric: koff (s⁻¹)
// units = s⁻¹; emit number, no label

Just so you know, measured koff for chimeric 1E4 antibody (antibody, V domains shown, VH and VL of mouse 1E4 with human IgG1 and kappa constant regions; also called ch1E4; Ch1E4) VH: QVQLQQSGAELVRPGTSVKVSCKASGYAFTNYLIEWVKQRPGQGLEWIGVINPGSGGTNYNEKFKGKATLTADKSSSTAYMQLSSLTSDDSAVYFCASGNYDTYWGQGTLVTVSA VL: DVVMTQTPLSLPVSLGDQASISCRSSQSLVHSNGNTYLHWYLQKPGQSPKLLIYKVSNRFSGVPDRFSGSGSGTDFTLKISRVEAEDLGVYFCSQSTHVPRTFGGGTKLEIK came out at 0.00054

get_value(item= hu1E4(V9_VL4) (antibody, human IgG1, V domains shown, Monospecific; human IgG1 and kappa constant regions) VH: QVQLVQSGAEVKKPGASVKVSCKASGYTFTNYLIEWVRQAPGQGLEWIGVINPGSGGTNYNEKFKGRATLTADKSISTAYMELSRLRSDDTAVYYCASGNYDTYWGQGTLVTVSS VL: DVVMTQSPLSLPVTLGQPASISCRSSQSLVHSNGNTYLHWYQQRPGQSPRLLIYKVSNRFSGVPDRFSGSGSGTDFTLKISRVEAEDVGVYYCSQSTHVPRTFGGGTKVEIK , readout=koff) returns 0.00137

// hu1E4(V8_VL4) (antibody, human IgG1, V domains shown, Monospecific; human IgG1 and kappa constant regions) VH: QVQLVQSGAEVKKPGASVKVSCKASGYTFTNYLIEWVRQAPGQGLEWMGVINPGSGGTNYNEKFKGRVTMTADKSISTAYMELSRLRSDDTAVYYCASGNYDTYWGQGTLVTVSS VL: DVVMTQSPLSLPVTLGQPASISCRSSQSLVHSNGNTYLHWYQQRPGQSPRLLIYKVSNRFSGVPDRFSGSGSGTDFTLKISRVEAEDVGVYYCSQSTHVPRTFGGGTKVEIK : koff value = 0.000854
